# Experimental System: human aquaporin 9 (Homo sapiens (Human), UniProt O43315)
# Sequence (O43315 whole entry): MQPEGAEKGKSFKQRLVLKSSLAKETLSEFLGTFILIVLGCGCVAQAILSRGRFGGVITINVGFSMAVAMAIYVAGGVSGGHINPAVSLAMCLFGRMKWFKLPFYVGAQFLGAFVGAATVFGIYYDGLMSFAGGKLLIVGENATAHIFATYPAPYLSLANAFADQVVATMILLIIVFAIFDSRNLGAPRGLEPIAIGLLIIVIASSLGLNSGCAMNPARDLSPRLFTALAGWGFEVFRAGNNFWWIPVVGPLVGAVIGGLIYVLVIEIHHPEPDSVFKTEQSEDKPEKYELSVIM
# Method Notes: Calcein quenching fluostar assay (inhibition of human aquaporin 9)
# Format: cell-based
# Cond: Human AQP9 cell line; example compounds used as 1 mM stock solutions in DMSO
# Method: Calcein Quenching Fluostar Assay A calcein quenching fluostar assay was performed in order to investigate the biological activity of the newly synthesized examples 1 to 57. This type of assay is disclosed in J. Biol. Chem., 2011, 286, 44319-44325 and Am. J. Physiol. Renal Physiol. (2010), 298, F224-230. 1) Two days prior to commencement of the assay, seed 10,000 cells/well of 96 well black clear bottom plate (Greiner Poly-lysin plate). […]
Readout Type: EC50 (nM)

Past entries and their recorded results:
CCn1c(CN2CCOCC2)nnc1SCC(=O)Nc1nnc(-c2ccc(OC)cc2)s1 | 230
CCc1nnc(SCC(=O)Nc2nnc(-c3ccccc3)s2)n1CC | 127
COc1ccc(-c2nnc(NC(=O)CSc3nnc(C)n3-c3ccccc3)s2)cc1 | 394
CCOc1ccc(-c2nnc(NC(=O)CSc3nnc(C(C)C)n3CC)s2)cc1 | 69
CCc1nnc(SCC(=O)Nc2nnc(-c3ccc(C(C)C)cc3)s2)n1CC | 79

(I) CCc1nnc(SCC(=O)Nc2nnc(-c3ccc(Cl)cc3)s2)n1CC
(II) CCc1nnc(SCC(=O)Nc2nnc(-c3ccccn3)s2)n1CC
(III) CCc1nnc(SCC(=O)Nc2nnc(-c3ccc(OC)cc3)s2)n1C
(IV) CCn1c(C)nnc1SCC(=O)Nc1nnc(-c2ccc(S(C)(=O)=O)cc2)s1
Ordering criterion: EC50; begin with the maximum. Hello, could you send the labels back in the order asked? Thank you. IV, II, III, I
(IV: 455 nM, II: 224 nM, III: 101 nM, I: 54 nM)

(a) CCOc1ccc(-c2nnc(NC(=O)CSc3nnc(CC)n3CC)s2)cc1
(b) CCc1nnc(SCC(=O)Nc2nnc(-c3ccc(S(C)(=O)=O)cc3)s2)n1C(C)C
(c) CCCCc1ccc(-c2nnc(NC(=O)CSc3nnc(CC)n3CC)s2)cc1
(d) CCn1c(CCOC)nnc1SCC(=O)Nc1nnc(-c2ccc(OC)cc2)s1
Sort the 4 compounds by EC50; largest first, smallest last. Give the labels in the order specified. d, c, b, a
(d: 457 nM, c: 179 nM, b: 76 nM, a: 42 nM)

* * *

# Experimental System: human aquaporin 9 (Homo sapiens (Human))
# Method Notes: Calcein quenching fluostar assay (inhibition of human aquaporin 9)
# Assay type: cell-based
# Cond: Human AQP9 cell line; example compounds used as 1 mM stock solutions in DMSO
Readout Type: EC50 (nM)

Answered examples (5):
CCn1c(SCC(=O)Nc2nnc(-c3ccc(OCCF)cc3)s2)nnc1C(C)C [Example 28] | 44
CCc1nnc(SCC(=O)Nc2nnc(-c3ccc(S(C)(=O)=O)cc3)s2)n1CC [Example 8] | 66
CCn1c(SCC(=O)Nc2nnc(-c3ccc(S(C)(=O)=O)cc3)s2)nnc1C1CCCC1 [Example 45] | 40
CCc1nnc(SCC(=O)Nc2nnc(-c3ccc(OCC(C)C)cc3)s2)n1CC [Example 13] | 101
CCc1nnc(SCC(=O)Nc2nnc(-c3ccc(OC(C)C)cc3)s2)n1CC [Example 34] | 55

(A) CCn1c(Cc2ccccc2)nnc1SCC(=O)Nc1nnc(-c2ccc(OC)cc2)s1 [Example 3]
(B) CCn1c(SCC(=O)Nc2nnc(-c3ccc(OCCOC)cc3)s2)nnc1C1CC1 [Example 43]
API: POST /compare with A and B ; response names the item with higher EC50. Respond using the label that marks the chosen record. A
(A: 195 nM, B: 52 nM)

* * *

# Experimental System: human aquaporin 9 (Homo sapiens (Human), UniProt O43315)
# Method Notes: Calcein quenching fluostar assay (inhibition of human aquaporin 9)
# Format: cell-based
# Cond: Human AQP9 cell line; example compounds used as 1 mM stock solutions in DMSO
Readout Type: pEC50 in the inhibition of human aquaporin 9

CCn1c(CCOC)nnc1SCC(=O)Nc1nnc(-c2ccc(OC(C)C)cc2)s1 | 7.4
CCc1nnc(SCC(=O)Nc2nnc(-c3ccc(OC)cc3)s2)n1C1CC1 | 7.3
CCc1nnc(SCC(=O)Nc2nnc(-c3ccc(OC)cc3)s2)n1C | 7
CCn1c(SCC(=O)Nc2nnc(-c3ccc(S(C)(=O)=O)cc3)s2)nnc1C1CC1 | 7
CCc1nnc(SCC(=O)Nc2nnc(-c3ccc(S(C)(=O)=O)cc3)s2)n1C(C)C | 7.1
CCn1c(Cc2cccc(F)c2)nnc1SCC(=O)Nc1nnc(-c2ccc(OC)cc2)s1 | 6.9
CCCc1ccc(-c2nnc(NC(=O)CSc3nnc(CCOC)n3CC)s2)cc1 | 7.4
CCc1nnc(SCC(=O)Nc2nnc(-c3ccc(S(C)(=O)=O)cc3)s2)n1CC | 7.2
CCc1nnc(SCC(=O)Nc2nnc(-c3ccccc3)s2)n1CC | 6.9
CCc1nnc(SCC(=O)Nc2nnc(-c3ccc4c(c3)CCO4)s2)n1CC | 6.9
CCc1nnc(SCC(=O)Nc2nnc(-c3ccc(S(C)(=O)=O)cc3)s2)n1C | 6.3
CCc1nnc(SCC(=O)Nc2nnc(-c3ccc(C(C)C)cc3)s2)n1CC | 7.1
CCn1c(SCC(=O)Nc2nnc(-c3ccc(S(C)(=O)=O)cc3)s2)nnc1C(C)C | 6.7
CCn1c(SCC(=O)Nc2nnc(-c3ccc(O)cc3)s2)nnc1C1CC1 | 7.1
CCc1nnc(SCC(=O)Nc2nnc(-c3ccc(OCC(C)C)cc3)s2)n1CC | 7
CCc1ccc(-c2nnc(NC(=O)CSc3nnc(CC)n3CC)s2)cc1 | 7.2
CCn1c(Cc2ccccc2)nnc1SCC(=O)Nc1nnc(-c2ccc(OC)cc2)s1 | 6.7
COc1ccc(-c2nnc(NC(=O)CSc3nnc(C)n3-c3ccccc3)s2)cc1 | 6.4

* * *

# Experimental System: UniProt:O43315
# Method Notes: Calcein quenching fluostar assay (inhibition of human aquaporin 9)
# Assay type: cell-based
# Cond: Human AQP9 cell line; example compounds used as 1 mM stock solutions in DMSO
Readout Type: EC50 (nM)

(I) CCn1c(Cc2cccc(F)c2)nnc1SCC(=O)Nc1nnc(-c2ccc(OC)cc2)s1
(II) CCc1ccc(-c2nnc(NC(=O)CSc3nnc(CC)n3CC)s2)cc1
Between I and II , whose measured EC50 reads higher? Field: selected label. Fill in the label of the entry you choose. I

(a) CCc1nnc(SCC(=O)Nc2nnc(-c3ccc(OC)cc3)s2)n1CCCO
(b) CCc1nnc(SCC(=O)Nc2nnc(-c3ccc(OC)cc3)s2)n1C1CC1
(c) CCn1c(SCC(=O)Nc2ccc(-c3ccc(OC)cc3)nn2)nnc1-c1ccc(F)cc1
(d) CCc1nnc(SCC(=O)Nc2nnc(-c3ccc(OCCOC)cc3)s2)n1CC
Provide the items ranked by increasing EC50. Use the labels to give the requested order. d, b, c, a
(d: 21 nM, b: 51 nM, c: 87 nM, a: 168 nM)

(P) CCc1nnc(SCC(=O)Nc2nnc(-c3ccc(S(C)(=O)=O)cc3)s2)n1C1CC1
(Q) CCn1c(CCOC)nnc1SCC(=O)Nc1nnc(-c2ccc(OC(C)C)cc2)s1
Lower EC50: P or Q ? Give the label of your selection. Q
(Q: 39 nM, P: 135 nM)

(a) CCc1nnc(SCC(=O)Nc2nnc(-c3ccc(O)cc3)s2)n1CC
(b) CCc1nnc(SCC(=O)Nc2nnc(-c3ccc(C#N)cc3)s2)n1CC
(c) CCn1c(SCC(=O)Nc2nnc(-c3ccc(S(C)(=O)=O)cc3)s2)nnc1C1CC1
I would appreciate it if you could sort these 3 molecules by EC50, starting from the smallest number. Lab note: record answer as labels in requested order. b, c, a
(b: 43 nM, c: 105 nM, a: 224 nM)

(a) CCn1c(CCOC)nnc1SCC(=O)Nc1nnc(-c2ccccc2)s1
(b) CCn1c(SCC(=O)Nc2nnc(-c3ccc(OC(C)C)cc3)s2)nnc1C(C)C
(c) CCc1nnc(SCC(=O)Nc2nnc(-c3ccc(SC)cc3)s2)n1CC
(d) CCc1nnc(SCC(=O)Nc2nnc(-c3ccc(OC)cc3)s2)n1CCCOC
Please list these molecules in decreasing order of EC50. In your reply, arrange the labels in the requested order. a, d, b, c
(a: 249 nM, d: 159 nM, b: 90 nM, c: 57 nM)

(a) CCc1nnc(SCC(=O)Nc2nnc(-c3ccc(C(F)(F)F)cc3)s2)n1CC
(b) CCc1nnc(SCC(=O)Nc2nnc(-c3ccc(OC)cc3)s2)n1-c1ccccc1
I would appreciate it if you could say which entry, a or b , has the lower EC50 value. Please respond with the label that marks your chosen entry. a
(a: 119 nM, b: 173 nM)

* * *

# Experimental System: human aquaporin 9 (Homo sapiens (Human))
# Method Notes: Calcein quenching fluostar assay (inhibition of human aquaporin 9)
# Type: cell-based
# Cond: Human AQP9 cell line; example compounds used as 1 mM stock solutions in DMSO
Readout Type: EC50 (nM)

CCCc1ccc(-c2nnc(NC(=O)CSc3nnc(CC)n3CC)s2)cc1 [Example 15] | 57
CCCc1ccc(-c2nnc(NC(=O)CSc3nnc(CCOC)n3CC)s2)cc1 [Example 24] | 41
CCc1nnc(SCC(=O)Nc2nnc(-c3ccc(OC)cc3)s2)n1CC [Example 2] | 59

(A) CCc1nnc(SCC(=O)Nc2nnc(-c3ccc(OCCF)cc3)s2)n1CC [Example 26]
(B) CCc1nnc(SCC(=O)Nc2nnc(-c3ccc(CC(C)C)cc3)s2)n1CC [Example 19]
(C) CCn1c(OCC(=O)Nc2nnc(-c3ccc(OC)cc3)s2)nnc1-c1ccc(F)cc1 [Example 4]
Highest EC50 first, then in falling order down to the smallest. Thanks in advance for listing the labels in the requested order. C, B, A
(C: 175 nM, B: 94 nM, A: 43 nM)

The reported numbers originate from patent US10730865B2.
